Assignment: determine reported Minimal Inhibitory Concentration CA for the given compounds.
- System: C. albicans
- Format: cell-based
Where a SMILES comes first, the peptide text is derived from it. [ ]: non-standard residue; d: D form. The star is where a group is joined. Octanoyl = CCCCCCCC(=O)*; Orn = NCCC[C@H](N)C(=O)O
One number for each entry, in µg/mL.

Previously resolved entries follow.
{"compound": "CCCCCCCC(=O)N[C@@H](CCCCN)C(=O)N[C@@H](CCCCN)C(=O)N[C@@H](CC(C)C)C(=O)N[C@@H](CC(C)C)C(=O)N[C@@H](CCCCN)C(=O)N[C@@H](CCCCN)C(=O)N[C@@H](CC(C)C)C(=O)N[C@@H](CCCCN)C(=O)N[C@@H](CCCCN)C(=O)N[C@@H](CC(C)C)C(N)=O [Oct-(SEQ ID NO: 109)-NH2] (Octanoyl-KKLLKKLKKL-NH2)", "readout_kind": "Minimal Inhibitory Concentration CA", "obs_value": 32}
{"compound": "CCCCCCCC(=O)N[C@@H](CCCCN)C(=O)N[C@@H](CCCCN)C(=O)N[C@@H](CC(C)C)C(=O)N[C@@H](CC(C)C)C(=O)N[C@@H](CCCCN)C(=O)N[C@@H](CCCCN)C(=O)N[C@@H](CC(C)C)C(=O)N[C@@H](CCCCN)C(=O)N[C@@H](CCCCN)C(=O)N[C@@H](CC(C)C)C(=O)N[C@@H](CC(C)C)C(=O)N[C@@H](CCCCN)C(=O)N[C@@H](CCCCN)C(=O)N[C@@H](CC(C)C)C(N)=O [Oct-(SEQ ID NO: 147)-NH2] (Octanoyl-KKLLKKLKKLLKKL-NH2)", "readout_kind": "Minimal Inhibitory Concentration CA", "obs_value": 128}

# next compound below
Inquiry: Could you tell me which Minimal Inhibitory Concentration CA is on file for CCCCCCCC(=O)N[C@@H](CCCN)C(=O)N[C@@H](CCCN)C(=O)N[C@@H](CC(C)C)C(=O)N[C@@H](CC(C)C)C(=O)N[C@@H](CCCN)C(=O)N[C@@H](CCC(N)=O)C(=O)N[C@@H](CC(C)C)C(=O)N[C@@H](CCCN)C(=O)N[C@@H](CCCN)C(=O)N[C@@H](CC(C)C)C(N)=O [Oct-(SEQ ID NO: 144)-NH2] (Octanoyl-[Orn][Orn]LL[Orn]QL[Orn][Orn]L-NH2) ?
Reply text: 32

Entry source: patent US6348445B1
